Target: T1, SNTG2, Q9NY99
T1 sequence (Q9NY99 68-166, limits assumed, looked up): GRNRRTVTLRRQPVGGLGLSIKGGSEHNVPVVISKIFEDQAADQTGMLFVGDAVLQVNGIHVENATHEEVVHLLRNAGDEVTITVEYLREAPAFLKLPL
Experiment: holdup assay
Parameters: key: below the threshold = too weak to quantify, mostly under pKd 3.1 to 4
Details: plain residues with an end cap or a label only (N-terminal biotin on a linker: ado-ado)

binder | pKd
HLSTRQGTCV [ATRNL1, Q5VV63] | 3.67
NNMAFETTHF [SLC5A12, Q1EHB4] | below the threshold
GQNMTVSVVI [PRLHR, P49683] | below the threshold
SGDGKTSVWI [GJC1, P36383] | below the threshold
VYEVPVETKF [SLC26A3, P40879] | below the threshold
KPDKQEEFYA [SDC3, O75056] | below the threshold
KLQNPNQSVV [TYRP1, P17643] | 3.64
HDDYFYHDEL [RCN2, Q14257] | below the threshold
